Assay: yeast AGP1-GFP fluorescence change, single-dose – cell-based, flow cytometry, S. cerevisiae, cherry picks, confirmation (AID 2273);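 also: median GFP channel fluorescence over the whole cell population gate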
Settings: S. cerevisiae AGP1-GFP strain, 3 h, at 10 µM
Active and inactive are the calls of the source.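 The calls were made as follows: active = GFP response above 150% of the DMSO level; inconclusive = fewer than 70 events counted for a yeast strain; inactive = the rest.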
Answer with one of the outcomes label 1 = active, label 0 = inactive

Answered cases to consult:
# Compound, Class label
rows = [
    ("CS(=O)(=O)Nc1cccc(C(=O)CC2(O)C(=O)Nc3ccc(Br)cc32)c1 (stereo not given)", "label 0"),
    ("CS(=O)(=O)N1N=C(c2ccccc2)CC1c1ccc2c(c1)OCO2 (stereo not given)", "label 1"),
    ("O=C1ON=C(c2ccc(Cl)cc2)/C1=C/c1ccc(O)cc1", "label 0"),
]

Name the outcome recorded for c1ccc2c(c1)CCOC2CNCCCN1CCCCC1 (stereo not given) in the assay. label 0

Input C[C@]12CCC(=O)C=C1[C@H](O)C[C@@H]1[C@@H]2[C@@H](O)C[C@@]2(C)[C@H]1CC[C@]2(O)C(=O)CO label 0

Input CC(=O)O[C@]1(C(C)=O)CC[C@H]2[C@@H]3C[C@H](C)C4=CC(=O)CC[C@]4(C)[C@H]3CC[C@@]21C label 0

Input Cc1ccc2[nH]c3c(c2c1)CCNC3=O label 0

Input CCOc1nnc(C)c2c(C)n(-c3cccc(OC)c3)nc12 label 0

Input CCS(=O)(=O)N1N=C(c2cccc(NS(C)(=O)=O)c2)CC1c1ccc(C)cc1 (stereo not given) label 0

Input NS(=O)(=O)c1cc2c(cc1C(F)(F)F)NC(Cc1ccccc1)NS2(=O)=O (stereo not given) label 0
